conditions: pig, dura, iv, 200 µg/kg BW
measurement_type: concentration at 6 h (ng/g)

INSERT INTO results (molecule, measurement_type, observed) VALUES
  ('CCCCCn1cc(C(=O)c2ccc(CC)c3ccccc23)c2ccccc21 [JWH-210]', 'concentration at 6 h', 1.7);

====

A collection of molecules and their measured concentration at 6 h
details: pig, spleen, iv, 200 µg/kg BW
measurement_type: concentration at 6 h (ng/g)

INSERT INTO results (molecule, unit_of_measurement, observed) VALUES
  ('CCCCCn1cc(C(=O)c2ccc(CC)c3ccccc23)c2ccccc21 [JWH-210]', 'ng/g', 11),
  ('CCCCCc1cc(O)c2c(c1)OC(C)(C)[C@@H]1CCC(C)=C[C@@H]21 [THC, ∆9-tetrahydrocannabinol]', 'ng/g', 7.1);

====

conditions: pig, lung (left), iv, 200 µg/kg BW
measurement_type: concentration at 6 h (ng/g)

INSERT INTO measurements (compound, observed) VALUES
  ('CCCCCc1cc(O)c2c(c1)OC(C)(C)[C@@H]1CCC(C)=C[C@@H]21 [THC, ∆9-tetrahydrocannabinol]', 61),
  ('CCCCCn1cc(C(=O)c2ccc(CC)c3ccccc23)c2ccccc21 [JWH-210]', 8.6);

====

conditions: pig, bile, iv, 200 µg/kg BW
measurement_type: concentration at 6 h (ng/g)

INSERT INTO measurements (molecule, measurement_type, observed) VALUES
  ('CCCCCn1cc(C(=O)c2ccc(CC)c3ccccc23)c2ccccc21 [JWH-210]', 'concentration at 6 h', 26),
  ('CCCCCc1cc(O)c2c(c1)OC(C)(C)[C@@H]1CCC(C)=C[C@@H]21 [THC, ∆9-tetrahydrocannabinol]', 'concentration at 6 h', 77);

====

A collection of compounds and their measured concentration at 6 h
settings: pig, skeletal muscle, iv, 200 µg/kg BW
measurement_type: concentration at 6 h

INSERT INTO assay_data (compound, observed) VALUES
  ('CCCCCc1cc(O)c2c(c1)OC(C)(C)[C@@H]1CCC(C)=C[C@@H]21 [THC, ∆9-tetrahydrocannabinol]', '16 ng/g'),
  ('CCCCCn1cc(C(=O)c2ccc(CC)c3ccccc23)c2ccccc21', '21 ng/g');

====

conditions: pig, lung (right), iv, 200 µg/kg BW
measurement_type: concentration at 6 h (ng/g)

INSERT INTO results (compound, measurement_type, observed) VALUES
  ('CCCCCn1cc(C(=O)c2ccc(CC)c3ccccc23)c2ccccc21 [JWH-210]', 'concentration at 6 h', 6.9),
  ('CCCCCc1cc(O)c2c(c1)OC(C)(C)[C@@H]1CCC(C)=C[C@@H]21 [THC, ∆9-tetrahydrocannabinol]', 'concentration at 6 h', 69);

====

conditions: pig, brain (cerebrum), iv, 200 µg/kg BW
measurement_type: concentration at 6 h (ng/g)

INSERT INTO results (compound, unit_of_measurement, observed) VALUES
  ('CCCCCn1cc(C(=O)c2ccc(CC)c3ccccc23)c2ccccc21', 'ng/g', 20),
  ('CCCCCc1cc(O)c2c(c1)OC(C)(C)[C@@H]1CCC(C)=C[C@@H]21 [THC, ∆9-tetrahydrocannabinol]', 'ng/g', 12);

====

A collection of compounds and their measured concentration at 6 h
settings: pig, heart, iv, 200 µg/kg BW
measurement_type: concentration at 6 h

INSERT INTO results (compound, measurement_type, observed) VALUES
  ('CCCCCc1cc(O)c2c(c1)OC(C)(C)[C@@H]1CCC(C)=C[C@@H]21 [THC, ∆9-tetrahydrocannabinol]', 'concentration at 6 h', '17 ng/g'),
  ('CCCCCn1cc(C(=O)c2ccc(CC)c3ccccc23)c2ccccc21', 'concentration at 6 h', '19 ng/g');
